Source listed as ChEMBL document CHEMBL4513216.

The entries below come with measured cytotoxicity at 10 µM values attached.
# experiment-notes: Toxicity liver stage against HepG2, at 10uM
# Format: cell-based
# Parameters: test concentration 10 uM, cell line HepG2-A16-CD81EGFP
# test-settings: human, HepG2-A16-CD81EGFP cells; read-out: INHIBITION
Give the number; % is assumed, so skip it.

// known answers, use as guide
{"columns": ["compound", "cytotoxicity at 10 µM [%]"],
 "data": [
  ["Fc1ccc(CNCc2cc(Br)c3c(c2)OCO3)cc1", 0.658],
  ["Cc1noc(CSc2ccc(C(F)(F)F)cn2)n1", -12.5],
  ["O=C(CN1C[C@H]2CC(OCc3ccccc3)C[C@H]2C1)N1CCOCC1 (stereo not given in full)", -9.92],
  ["CCn1cc(NC(=O)NCCN2CCCCCC2=O)cn1", 0.107],
  ["C[S+]([O-])c1nncn1CC(=O)c1ccc(Br)cc1 (stereo not given)", 0],
  ["CN(C)c1cncc(C2CCCN2S(=O)(=O)c2cn(C)cn2)n1 (stereo not given)", -27.1],
  ["O=C(NCCCc1ccccn1)c1cn(CCN2CCNCC2)nn1", -3.54],
  ["O=C(NCc1ccccc1CN1CCOCC1)Nc1nncs1", 14.3],
  ["c1cc2c(cc1CN(Cc1nc(C3CC3)no1)C1CCCC1)OCO2", -10.6],
  ["CC(CNCc1ccc(Cl)c(Cl)c1)Oc1ccccn1 (stereo not given)", -0.291]
]}

CN(Cc1nc(C2CC2)no1)C(=O)CN1CC(c2ccccc2)CC1=O (stereo not given) yielded cytotoxicity at 10 µM of 2.11

CC(C)n1ccnc1CN1CCCN(C(=O)c2cscn2)CC1 yielded cytotoxicity at 10 µM of -1.63

Cc1n[nH]c(C)c1-c1cnc(C2CCN(S(C)(=O)=O)CC2)cn1 yielded cytotoxicity at 10 µM of -1.57

###

The entries below come with measured cytotoxicity at 10 µM values attached.
# experiment-notes: Toxicity liver stage against HepG2, at 10uM
# Format: cell-based
# Set-up: test concentration 10 uM, cell line HepG2-A16-CD81EGFP
# test-settings: human, HepG2-A16-CD81EGFP cells; read-out: INHIBITION

// known answers, use as guide
{"columns": ["compound", "observed"],
 "data": [
  ["Cc1cc(C)n(C2CCCN(C(=O)c3ccc(N(C)C)nc3)C2)n1 (stereo unspecified)", "-4.26%"],
  ["O=C(c1cccc(C(F)(F)F)c1)N1CC(=O)N(C2CCC2)CC(O)C1 (stereo unspecified)", "-3.16%"],
  ["O=C(CCc1ccco1)N1CCC(Oc2ccccc2)(C(=O)O)CC1", "1.46%"],
  ["CN(Cc1ccccn1)C1CCC[C@@H]2CN(CC3CC3)C[C@H]12 (stereo partly specified)", "-113%"],
  ["CN(C)c1ncc(-c2cncn2CCc2ccc3c(c2)OCCO3)cn1", "-1.04%"]
]}

CN1CCCc2sc(C(=O)NC3CC3)nc21 yielded cytotoxicity at 10 µM of -149%

###

# experiment-notes: Toxicity liver stage against HepG2, at 10uM
# Format: cell-based
# Parameters: test concentration 10 uM, cell line HepG2-A16-CD81EGFP
# test-settings: human, HepG2-A16-CD81EGFP cells; read-out: INHIBITION
observed-property: cytotoxicity at 10 µM (%)
Give the number; % is assumed, so skip it.

// known answers, use as guide
{"columns": ["compound", "observed-property", "observed"],
 "data": [
  ["O=C(c1ccno1)N1CCC2(CC1)C(=O)Nc1ccccc12", "cytotoxicity at 10 µM", -134],
  ["Cc1cccc(C2(CNC(=O)CCN3C(=O)CCC3=O)CCCC2)c1", "cytotoxicity at 10 µM", -7.59],
  ["CCCOc1ccc(Cl)cc1NC(=O)NCCC(=O)N(C)C", "cytotoxicity at 10 µM", -0.734]
]}

CN(C)CCN(Cc1ccc(C(F)(F)F)cc1)C(=O)c1cc[nH]n1 yielded cytotoxicity at 10 µM of 3.95

Cc1nc(C)n(CC2CCCCN2Cc2nc(-c3ccco3)no2)n1 (configuration not stated) yielded cytotoxicity at 10 µM of -10.6

###

# experiment-notes: Toxicity liver stage against HepG2, at 10uM
# Type: cell-based
# Parameters: test concentration 10 uM, cell line HepG2-A16-CD81EGFP
# test-settings: human, HepG2-A16-CD81EGFP cells; read-out: INHIBITION
observed-property: cytotoxicity at 10 µM (%)
Give the number; % is assumed, so skip it.

// known answers, use as guide
{"columns": ["compound", "observed"],
 "data": [
  ["COCC(=O)N1CCc2ccc(=O)n(Cc3csc(C)n3)c2CC1", 8.19],
  ["Cc1cc(C)nc(N2CCC(c3cccc(CCC(=O)O)n3)CC2)n1", 0.343],
  ["Nc1nccc(NCc2cc3n(n2)CCCN(C2CCCCC2)C3)n1", -16],
  ["CNc1cc(C2CN(C(=O)c3ccccc3)CCO2)nc(C)n1 (centres undefined)", 6.1],
  ["Cc1cc(N2CCN(C(=O)Cc3ccc4c(c3)OCO4)CC2)cc(C)n1", -18],
  ["Cc1nc(CN2CCCC3(CCN(c4cnn(C)c4)C3=O)C2)cs1 (centres undefined)", 3.16],
  ["O=C(c1ccccc1-n1cccn1)N1CCC(Nc2cccnn2)CC1", -15.9],
  ["CCC(C)CNCC1(S(C)(=O)=O)CCOCC1 (centres undefined)", -11.4],
  ["Oc1coc2cc(OC[C@@H]3CCCN4CCCC[C@H]34)ccc12", 1.96],
  ["Cc1cc(C)n(C2CN(CC(=O)NC(C3CC3)C3CC3)C2)n1", -9.8]
]}

Turning now to a further compound:
COc1cccc(CCC2CCCN(C(=O)c3ccc(OC)o3)C2)c1 (centres undefined) yielded cytotoxicity at 10 µM of 9.9

###

# experiment-notes: Toxicity liver stage against HepG2, at 10uM
# Format: cell-based
# Parameters: test concentration 10 uM, cell line HepG2-A16-CD81EGFP
# test-settings: human, HepG2-A16-CD81EGFP cells; read-out: INHIBITION
The entries below come with measured cytotoxicity at 10 µM values attached.
Give the number; % is assumed, so skip it.

// known answers, use as guide
{"columns": ["compound", "unit-name", "cytotoxicity at 10 µM"],
 "data": [
  ["CC(C)(C)N1CCCN(C(=O)c2csc(S(N)(=O)=O)c2)CC1", "%", 5.06],
  ["CC(C)c1noc(CCC(=O)NCC2CCOC2)n1 (stereo unspecified)", "%", 4.57],
  ["Cc1nn(C)cc1Cn1c(=O)ccc2ccccc21", "%", -12.5]
]}

CC(C)c1nc2c(n1C)CCN(Cc1nc(-c3cccs3)no1)C2 yielded cytotoxicity at 10 µM of -10.1

O=C(c1ccc2nncn2c1)N1CCCC1c1noc(C2CC2)n1 (stereo unspecified) yielded cytotoxicity at 10 µM of -7.11

CC(C)c1noc(CCCC(=O)NC2CCS(=O)(=O)C2)n1 (stereo unspecified) yielded cytotoxicity at 10 µM of 4.67

###

# experiment-notes: Toxicity liver stage against HepG2, at 10uM
# Type: cell-based
# Set-up: test concentration 10 uM, cell line HepG2-A16-CD81EGFP
# test-settings: human, HepG2-A16-CD81EGFP cells; read-out: INHIBITION
observed-property: cytotoxicity at 10 µM (%)
Give the number; % is assumed, so skip it.

{"columns": ["compound", "observed-property", "observed"],
 "data": [
  ["CN(C)C(=O)c1cccnc1SCc1ccccc1C#N", "cytotoxicity at 10 µM", 2.02],
  ["O=C(NCCN1CCOCC1)NCc1ncc(-c2ccccc2)o1", "cytotoxicity at 10 µM", 1.26],
  ["CC(C)Nc1nc2c(cc1C(=O)NCC1CC1)CCN(CC1CC1)CC2", "cytotoxicity at 10 µM", 46.5],
  ["CC(=O)N1CCCC2(CN(Cc3ccc(C)s3)CCO2)C1 (centres undefined)", "cytotoxicity at 10 µM", 0.102],
  ["O=c1c2cccc(F)c2ncn1CCN1CCNCC1", "cytotoxicity at 10 µM", -0.812]
]}

CC(=O)c1c(C)nn(S(=O)(=O)c2ccccc2)c1C yielded cytotoxicity at 10 µM of -0.305

COc1ccc(CN2CC[C@@]3(O)CCCC[C@H]3C2)cc1C(=O)O yielded cytotoxicity at 10 µM of -3.12

c1ccc2c(Cc3nnc([C@H]4CCN(CC5CC5)C4)o3)c[nH]c2c1 yielded cytotoxicity at 10 µM of 4.73

CC(C)c1nnc(NC(=O)NC2CCN(Cc3ccccc3)C2)s1 (centres undefined) yielded cytotoxicity at 10 µM of -11.2

COc1cc(C2CC(=O)Nc3c2c(=O)[nH]n3C2CCCC2)ccc1O (centres undefined) yielded cytotoxicity at 10 µM of -1.37

Cc1nc(COC[C@@]23CCC[C@@H]2CN(CC2CCOCC2)C3)cs1 yielded cytotoxicity at 10 µM of 7.98
